Overview of recorded IC50 at 48 h for various molecules
# Experiment Description: Cytotoxicity, MTT assay on normal embryonic lung cells
# Assay type: cell-based
# Measurement Conditions: human, MRC-5 normal embryonic lung cells

# Molecule, Result
measured = [
    ("Oc1cccc2cccnc12 [Compound 1, 8-hydroxyquinoline]", "6.27 µM"),
    ("O=c1[nH]cc([N+](=O)[O-])c(=O)[nH]1", "> 50 mg/L"),
    ("O=c1[nH]cc(I)c(=O)[nH]1", "> 50 mg/L"),
]

We next turn to a different molecule, shown below.
*Q* Complete the entry with IC50 at 48 h for COc1cccc2c1C(=O)c1c(O)c3c(c(O)c1C2=O)C[C@@](O)(C(=O)CO)C[C@@H]3O[C@H]1C[C@H](N)[C@H](O)[C@H](C)O1
*A* > 50 mg/L
